tested on: CCRIS mutagenicity, Ames/micronucleus/aberration tests; experiment: CCRIS mutagenicity studies; conditions: Test System: AMES SALMONELLA TYPHIMURIUM; Strain/Indicator: TA100; Metabolic Activation: RAT, LIVER, S-9, AROCLOR 1254; Method: PREINCUBATION
Calls of active or inactive are those of the source. The rule behind the calls is not given here.
Permitted responses: 1 (active), 0 (inactive)

C[C@](N)(Cc1ccc(O)c(O)c1)C(=O)O
0
O=Nc1cc2c3ccccc3ccc2c2ccccc12
1
CC(C)(C#N)N=NC(C)(C)C#N
0
COc1ccc(OC)cc1
0
CC(=O)Nc1ccc(S(N)(=O)=O)cc1
0
CC(C)(C)C1=CC(=O)C=CC1=O
0
CCCCCC[C@@H](O)C/C=C\CCCCCCCC(=O)O
0

Which outcome was entered for the compound "O=C1CCc2ccccc2O1" in this test?
0
